Reference for the values: BindingDB's records for doi:10.1016/s0960-894x(01)00002-6

- system.under.test: DNA polymerase I (Escherichia coli) (UniProt P00582)
- Sequence (P00582 whole entry, looked up): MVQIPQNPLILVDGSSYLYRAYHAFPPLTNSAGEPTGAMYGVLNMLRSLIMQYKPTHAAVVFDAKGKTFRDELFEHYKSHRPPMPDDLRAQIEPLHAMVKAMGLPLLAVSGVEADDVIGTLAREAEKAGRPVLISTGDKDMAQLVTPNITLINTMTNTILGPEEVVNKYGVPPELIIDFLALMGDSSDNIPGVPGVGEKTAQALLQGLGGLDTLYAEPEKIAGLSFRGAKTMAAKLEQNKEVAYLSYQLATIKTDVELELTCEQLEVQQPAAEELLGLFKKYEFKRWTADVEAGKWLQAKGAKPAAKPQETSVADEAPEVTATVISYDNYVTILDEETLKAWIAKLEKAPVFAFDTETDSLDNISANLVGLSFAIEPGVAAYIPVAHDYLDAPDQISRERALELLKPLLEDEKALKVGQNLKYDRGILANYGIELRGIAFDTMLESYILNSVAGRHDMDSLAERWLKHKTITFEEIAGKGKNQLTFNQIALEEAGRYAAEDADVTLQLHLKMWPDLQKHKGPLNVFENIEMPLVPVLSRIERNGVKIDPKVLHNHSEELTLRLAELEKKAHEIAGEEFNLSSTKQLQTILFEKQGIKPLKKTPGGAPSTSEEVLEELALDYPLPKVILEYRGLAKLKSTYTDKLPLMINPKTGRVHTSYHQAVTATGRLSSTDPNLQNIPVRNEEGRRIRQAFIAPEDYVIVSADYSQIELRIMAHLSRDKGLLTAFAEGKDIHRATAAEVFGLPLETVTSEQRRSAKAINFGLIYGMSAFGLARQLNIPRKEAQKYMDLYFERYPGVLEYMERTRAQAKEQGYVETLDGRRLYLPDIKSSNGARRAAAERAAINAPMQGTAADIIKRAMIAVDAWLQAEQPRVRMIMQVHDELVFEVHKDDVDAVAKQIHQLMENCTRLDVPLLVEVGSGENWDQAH
recorded.endpoint: IC50 (µM)
Provide the reading as a plain figure in µM.

Find the measured IC50 of O=C(Cc1cn(CCn2ccc3cc(Cl)ccc32)c2ccccc12)NCCCCCCCCCCCCOP(=O)(O)OC1CCCCC1 and report it. 101
